These entries and their values trace back to PubChem BioAssay (NCI).

System: MOLT-4 leukemia
Assay: NCI tumour cell line growth inhibition, 48 h; in the data active = GI50 below about 0.43 µM; inactive = the rest
API: response.call in y (active), n (inactive)

>>> assigned_category("COc1cc2ncn(-c3cc(OCc4ccccc4S(C)(=O)=O)c(C#N)s3)c2cc1OC")
"n"
>>> assigned_category("COc1ccc(/C=C\\c2cc(OC)c(OC)c(OC)c2)cc1OCC(=O)Nc1nc2ccc(OC(F)(F)F)cc2s1")
"n"
>>> assigned_category("COc1ccc(-n2c(C)nc3c(c(C)nn3-c3ccccc3)c2=O)cc1")
"y"
>>> assigned_category("N=C(N)c1ccc(-c2ccc(-c3ccc(F)cc3)o2)o1")
"n"

**Q:** Identify the outcome logged in this assay for the compound shown: "COc1ccc(C2=C(c3cc(OC)c(OC)c(OC)c3)C(=O)OC2)cc1OC"
**A:** y
